All figures here come from patent US12492252.

Reported RuMax values for a set of binders
- system: T1, full length human GPC3 His (human, UniProt P51654 25-559, limits assumed)
- T1 construct: also called full length human GPC3 protein; not shown: His tag
- test.details: SPR (Biacore T200), full length human GPC3 His immobilised, IgG1 in solution
measurement.name: RuMax

INSERT INTO measurements (binder, experimental_result) VALUES
  ('anti-human GPC3 IgG1 antibody clone 22 (antibody, V domains shown) VH: CQSVEESGGRLVTPGTPLTLTCTVSGFSLSTYWMTWVRQAPGKGLEWIGIINPTGRAYYASWAKGRFTISKTSSATVDLKMTSLTAADTATYFCAGGGGMDPWGPGTLVTVSS VL: DPVLTQTPSSVSAAVGGTVTINCQSSQSVYSNYLSWFQKKPGQPPKRLIYKASTLVSGVPSRFVGSGSGTEFTLTISDLECDDAATYYCAASYSGNIYVFGGGTEVVVKR', 2.9),
  ('anti-human GPC3 IgG1 antibody clone 49 (antibody, V domains shown) VH: CQSVEESGGRLVTPGTPLTLTCTVSGFSLSTYWMTWVRQAPGKGLEWIGIINPSGSAYYASWAKGRFTISKTSSATVDLKMTSLTAADTATYFCAGGGGMDPWGPGTLVTVSS VL: DPVLTQTPSSVSAAVGGTVSISCQSSQSIVKNYLSWFQQKPGQPPKRLIYKASTLPSGVPSRFKGSGSGTEFTLTISDLECDDAATYYCAASYSDNIYVFGGGTEVVVKR', 1.7),
  ('anti-human GPC3 IgG1 antibody clone 41 (antibody, V domains shown) VH: CQSVEESGGRLVTPGTALTLTCTVSGFSLSTYWMTWVRQAPGKGLEWIGIINPGGSAYYASWAKGRFTISKASSATVDLKMTSLTAADTATYFCAGGGGMDPWGPGTLVTVSS VL: DPVLTQTPSSVSAAVGGTVSISCQSSQSIIKNYLSWFQHKPGQPPKRLIYRASTLPSGVPSRFEGSGSGTEFTLTINDLECDDAATYYCAASYSDNIYVFGGGTEVVVKR', 1.49),
  ('anti-human GPC3 IgG1 antibody clone 8 (antibody, V domains shown) VH: CQSVEESGGRLVTPGTALTLTCTVSGFSLSTYWMTWVRQAPGKGLEWIGIINPGGSAYYASWAKGRFTISKTSSATVDLKMTSLTAADTATYFCAGGGGMDPWGPGTLVTVSS VL: DPVLTQTPSSVSAAVGGTVSISCQSSQSIIKNYLSWFQHKPGQPPKRLIYRASTLPSGVPSRFEGSGSGTEFTLTISDLECDDAATYYCAASYSDNIYVFGGGTEVVVKR', 3.7),
  ('anti-human GPC3 IgG1 antibody clone 40 (antibody, V domains shown, also called parental clone 40; chimeric anti-GPC3 clone 40) VH: CQSVEESGGRLVTPGTPLTLTCTVSGFSLSTYWMTWVRQAPGKGLEWIGIISPAGSAYYASWAKGRFTISKTSSATVDLKMTSLTTADTATYFCAGGGGMDPWGPGTLVTVSS VL: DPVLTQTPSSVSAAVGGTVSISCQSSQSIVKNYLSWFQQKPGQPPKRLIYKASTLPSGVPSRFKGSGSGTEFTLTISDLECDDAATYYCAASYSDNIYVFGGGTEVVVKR', 2.4),
  ('anti-human GPC3 IgG1 antibody clone 2 (antibody, V domains shown) VH: CQSVEESGGRLVTPGTPLTLTCTVSGFSLSTYNMGWIRQAPGEGLEYIGTISSSTGNTYYATWAKGRFTISKTSSTTVDLKITNLTTEDTATYFCVRVNNMGDIWGPGTLVTVSL VL: AIVMTQTPSSKSVAVGDTVTINCQASESVYKDNRLAWFQQKPGQAPKLLIYLASTLASGVPSRFKGSGSGTEFTLTISDVVCDDAATYYCGGYKDSLFDGFPFGGGTEVVVKR', 2),
  ('anti-human GPC3 IgG1 antibody clone 12 (antibody, V domains shown) VH: CQSVEESGGRLVTPGTPLTLTCTVSGFSLSTYWMTWVRQAPGKGLEWIGIINPSGSAFYASWAKGRFTISKTSSATVDLKMTSLTAADTATYFCAGGGGMDPWGPGTLVTVSS VL: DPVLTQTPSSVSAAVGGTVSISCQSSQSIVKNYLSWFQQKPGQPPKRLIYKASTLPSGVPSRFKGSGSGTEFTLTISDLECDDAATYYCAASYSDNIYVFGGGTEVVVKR', 1.4),
  ('anti-human GPC3 IgG1 antibody clone 74 (antibody, V domains shown) VH: QCQSVEESGGRLVTPGTPLTLTYTVSGFSLNNYDMSWVRQAPGKGLQYIGWINSGGTAYYASWAKGRFTISKTSSTTVDLKMTSPTTEDTATYFCARHRYGYYGDIWGPGTLVTVSL VL: DPVLTQTPSSVSAAVGGTVTINCQSSQNVYNNNRLAWYQQKLGQPPKLLIYFASKLASGVPSRFSGSGSGTQFTLTISGVQCDDAATYYCAGGYNTIVDNGFGGGTEVVVKR', 24.3);
